# System: Pasteurella multocida
# measurementDescription: minimum inhibitory concentration (MIC)
# conditionParameters: isolate (source animal id): 312
Recorded minimum inhibitory concentration by entry

Some compounds with known minimum inhibitory concentration results, for comparison:
smilesCode	result
CCCN1C[C@H](C)[C@@H](O)[C@](C)(O)[C@@H](CC)OC(=O)[C@H](C)[C@@H](O[C@H]2C[C@@](C)(OC)[C@@H](O)[C@H](C)O2)[C@H](C)[C@@H](O[C@@H]2O[C@H](C)C[C@H](N(C)C)[C@H]2O)[C@](C)(O)C[C@H]1C	> 8 µg/mL
CCCNC[C@]1(O)[C@H](C)O[C@@H](O[C@H]2[C@H](C)[C@@H](O[C@@H]3O[C@H](C)C[C@H](N(C)C)[C@H]3O)[C@](C)(O)C[C@@H](C)CN[C@H](C)[C@@H](O)[C@](C)(O)[C@@H](CC)OC(=O)[C@@H]2C)C[C@@]1(C)OC	≤ 8 µg/mL
CN[C@@H]1[C@H](O)[C@H](NC)[C@H]2O[C@@]3(O)C(=O)C[C@@H](C)O[C@H]3O[C@@H]2[C@H]1O	16 µg/mL
COc1cc(Cc2cnc(N)nc2N)cc(OC)c1OC.Cc1cc(NS(=O)(=O)c2ccc(N)cc2)no1	≤ 2 µg/mL
CS(=O)(=O)c1ccc([C@@H](O)[C@@H](CF)NC(=O)C(Cl)Cl)cc1	8 µg/mL

For the next question, use this compound.
CN(C)[C@@H]1C(O)=C(C(N)=O)C(=O)[C@@]2(O)C(O)=C3C(=O)c4c(O)cccc4[C@@](C)(O)[C@H]3C[C@@H]12 on Pasteurella multocida gives minimum inhibitory concentration = > 8 µg/mL

* * *

Measured minimum inhibitory concentration by item
# Test system: Pasteurella multocida
# measurementDescription: minimum inhibitory concentration (MIC)
# conditionParameters: isolate (source animal id): 104

Sample records with minimum inhibitory concentration:
smilesCode	tgt	minimum inhibitory concentration
CCC[C@@H]1C[C@@H](C(=O)N[C@@H]([C@H]2O[C@H](SC)[C@H](O)[C@@H](O)[C@H]2O)[C@H](C)Cl)N(C)C1	Pasteurella multocida	> 16 µg/mL
CCCNC[C@]1(O)[C@H](C)O[C@@H](O[C@H]2[C@H](C)[C@@H](O[C@@H]3O[C@H](C)C[C@H](N(C)C)[C@H]3O)[C@](C)(O)C[C@@H](C)CN[C@H](C)[C@@H](O)[C@](C)(O)[C@@H](CC)OC(=O)[C@@H]2C)C[C@@]1(C)OC	Pasteurella multocida	> 64 µg/mL
COc1cc(NS(=O)(=O)c2ccc(N)cc2)nc(OC)n1	Pasteurella multocida	> 256 µg/mL
CC1(C)S[C@@H]2[C@H](NC(=O)Cc3ccccc3)C(=O)N2[C@H]1C(=O)O	Pasteurella multocida	≤ 0.12 µg/mL

Continue with the next compound.
GET /value?item= CC[C@H]1OC(=O)C[C@@H](O)[C@H](C)[C@@H](O[C@@H]2O[C@H](C)[C@@H](O)[C@H](N(C)C)[C@H]2O)[C@@H](CCN2C[C@H](C)C[C@H](C)C2)C[C@@H](C)C(=O)/C=C/C(C)=C/[C@@H]1CO[C@@H]1O[C@H](C)[C@@H](O)[C@@H](OC)[C@H]1OC &field=minimum inhibitory concentration returns > 16 µg/mL

* * *

This listing pairs compounds with measured minimum inhibitory concentration.
# System: Mannheimia haemolytica
# measurementDescription: minimum inhibitory concentration (MIC)
# conditionParameters: isolate (source animal id): 328

Answered cases to consult:
compound	minimum inhibitory concentration
CCC[C@@H]1C[C@@H](C(=O)N[C@@H]([C@H]2O[C@H](SC)[C@H](O)[C@@H](O)[C@H]2O)[C@H](C)Cl)N(C)C1 [Clindamycin]	16 µg/mL
CC1(C)S[C@@H]2[C@H](NC(=O)Cc3ccccc3)C(=O)N2[C@H]1C(=O)O [Penicillin]	0.25 µg/mL
CCCN1C[C@H](C)[C@@H](O)[C@](C)(O)[C@@H](CC)OC(=O)[C@H](C)[C@@H](O[C@H]2C[C@@](C)(OC)[C@@H](O)[C@H](C)O2)[C@H](C)[C@@H](O[C@@H]2O[C@H](C)C[C@H](N(C)C)[C@H]2O)[C@](C)(O)C[C@H]1C [Gamithromycin]	> 8 µg/mL
COc1cc(NS(=O)(=O)c2ccc(N)cc2)nc(OC)n1 [sulfadimethoxine]	> 256 µg/mL

Turning now to a further compound:
# minimum inhibitory concentration of CN[C@@H]1[C@H](O)[C@H](NC)[C@H]2O[C@@]3(O)C(=O)C[C@@H](C)O[C@H]3O[C@@H]2[C@H]1O [Spectinomycin] = 16 µg/mL

* * *

# Test system: Pasteurella multocida
# measurementDescription: minimum inhibitory concentration (MIC)
# conditionParameters: isolate (source animal id): 195
Below, each entry is listed with its recorded minimum inhibitory concentration.

Some solved cases for reference:
molecule	minimum inhibitory concentration
CC1(C)S[C@@H]2[C@H](NC(=O)Cc3ccccc3)C(=O)N2[C@H]1C(=O)O	≤ 0.12 µg/mL
COc1cc(Cc2cnc(N)nc2N)cc(OC)c1OC.Cc1cc(NS(=O)(=O)c2ccc(N)cc2)no1	≤ 2 µg/mL

Record CCCNC[C@]1(O)[C@H](C)O[C@@H](O[C@H]2[C@H](C)[C@@H](O[C@@H]3O[C@H](C)C[C@H](N(C)C)[C@H]3O)[C@](C)(O)C[C@@H](C)CN[C@H](C)[C@@H](O)[C@](C)(O)[C@@H](CC)OC(=O)[C@@H]2C)C[C@@]1(C)OC , field minimum inhibitory concentration: ≤ 8 µg/mL

For reference, reported minimum inhibitory concentration for CNC(C)C1CCC(N)C(OC2C(N)CC(N)C(OC3OCC(C)(O)C(NC)C3O)C2O)O1 (stereo not given) stands at 4 µg/mL

Value of minimum inhibitory concentration reported for the molecule CO/N=C(\C(=O)N[C@@H]1C(=O)N2C(C(=O)O)=C(CSC(=O)c3ccco3)CS[C@H]12)c1csc(N)n1 is ≤ 0.25 µg/mL

* * *

# Tested on: Histophilus somni
# measurementDescription: minimum inhibitory concentration (MIC)
# conditionParameters: isolate (source animal id): 280
minimum inhibitory concentration for assorted compounds
Give a bare numeral; the unit µg/mL is implied.

# annotated cases, reported minimum inhibitory concentration shown
smilesCode	minimum inhibitory concentration (µg/mL)
CC1(C)S[C@@H]2[C@H](NC(=O)Cc3ccccc3)C(=O)N2[C@H]1C(=O)O	0.5
CC[C@H]1OC(=O)C[C@@H](O)[C@H](C)[C@@H](O[C@@H]2O[C@H](C)[C@@H](O[C@H]3C[C@@](C)(O)[C@@H](O)[C@H](C)O3)[C@H](N(C)C)[C@H]2O)[C@@H](CC=O)C[C@@H](C)C(=O)/C=C/C(C)=C/[C@@H]1CO[C@@H]1O[C@H](C)[C@@H](O)[C@@H](OC)[C@H]1OC	4

# value of minimum inhibitory concentration, Histophilus somni, item CN[C@@H]1[C@H](O)[C@H](NC)[C@H]2O[C@@]3(O)C(=O)C[C@@H](C)O[C@H]3O[C@@H]2[C@H]1O = 16

* * *

# Test system: Pasteurella multocida
# measurementDescription: minimum inhibitory concentration (MIC)
# conditionParameters: isolate (source animal id): 104
Recorded measurements of minimum inhibitory concentration, one per entry

Example entries and their recorded answers appear below.
smilesCode	quantity	result
COc1cc(Cc2cnc(N)nc2N)cc(OC)c1OC.Cc1cc(NS(=O)(=O)c2ccc(N)cc2)no1	minimum inhibitory concentration	≤ 2 µg/mL
CCCN1C[C@H](C)[C@@H](O)[C@](C)(O)[C@@H](CC)OC(=O)[C@H](C)[C@@H](O[C@H]2C[C@@](C)(OC)[C@@H](O)[C@H](C)O2)[C@H](C)[C@@H](O[C@@H]2O[C@H](C)C[C@H](N(C)C)[C@H]2O)[C@](C)(O)C[C@H]1C	minimum inhibitory concentration	> 8 µg/mL
CCN1CCN(c2cc3c(cc2F)c(=O)c(C(=O)O)cn3C2CC2)CC1	minimum inhibitory concentration	0.5 µg/mL
CC1(C)S[C@@H]2[C@H](NC(=O)[C@H](N)c3ccccc3)C(=O)N2[C@H]1C(=O)O	minimum inhibitory concentration	≤ 0.25 µg/mL
C=C[C@]1(C)C[C@@H](OC(=O)CSCCN(CC)CC)[C@]2(C)[C@H](C)CC[C@]3(CCC(=O)[C@H]32)[C@@H](C)[C@@H]1O	minimum inhibitory concentration	32 µg/mL

--- query ---
Quick note, minimum inhibitory concentration for CN(C)[C@@H]1C(O)=C(C(N)=O)C(=O)[C@@]2(O)C(O)=C3C(=O)c4c(O)cccc4[C@@](C)(O)[C@H]3C[C@@H]12 landed at > 8 µg/mL

* * *

# System: Mannheimia haemolytica
# measurementDescription: minimum inhibitory concentration (MIC)
# conditionParameters: isolate (source animal id): 57
quantity: minimum inhibitory concentration

Measured minimum inhibitory concentration for this entry COc1cc(NS(=O)(=O)c2ccc(N)cc2)nc(OC)n1 on Mannheimia haemolytica: > 256 µg/mL

The compound COc1cc(Cc2cnc(N)nc2N)cc(OC)c1OC.Cc1cc(NS(=O)(=O)c2ccc(N)cc2)no1 , tested on Mannheimia haemolytica, showed minimum inhibitory concentration of ≤ 2 µg/mL

// minimum inhibitory concentration (Mannheimia haemolytica) for CCC[C@@H]1C[C@@H](C(=O)N[C@@H]([C@H]2O[C@H](SC)[C@H](O)[C@@H](O)[C@H]2O)[C@H](C)Cl)N(C)C1 = > 16 µg/mL
